- Tested on: SaR4: Meticillin-Resistant Staphylococcus aureus
- ASSAY PROTOCOL: Antibiogram, MIC by the VITEK 2 system
- Type: cell-based
- CONDITION SUMMARY: SaR4; from MIC; Cc CA-SFM 2011
- Procedure: The bacterial and antibiogramidentification is carried out by the VITEK 2 system (bioMérieux) and by the disk diffusion technique
OBSERVED PROPERTY: CA-SFM Interpretation

[
  {
    "COMPOUND": "Cc1onc(-c2ccccc2)c1C(=O)N[C@@H]1C(=O)N2[C@@H]1SC(C)(C)[C@@H]2C(=O)O",
    "STUDY SYSTEM": "SaR4: Meticillin-Resistant Staphylococcus aureus",
    "OBSERVED RESULT": "Resistant"
  },
  {
    "COMPOUND": "CCC[C@@H]1C[C@@H](C(=O)N[C@@H]([C@H]2O[C@H](SC)[C@H](O)[C@@H](O)[C@H]2O)[C@@H](C)O)N(C)C1",
    "STUDY SYSTEM": "SaR4: Meticillin-Resistant Staphylococcus aureus",
    "OBSERVED RESULT": "Resistant"
  },
  {
    "COMPOUND": "CN[C@H](CC(C)C)C(=O)N[C@H]1C(=O)N[C@@H](CC(N)=O)C(=O)N[C@H]2C(=O)N[C@H]3C(=O)N[C@H](C(=O)N[C@H](C(=O)O)c4cc(O)cc(O)c4-c4cc3ccc4O)[C@H](O)c3ccc(c(Cl)c3)Oc3cc2cc(c3O[C@@H]2O[C@H](CO)[C@@H](O)[C@H](O)[C@H]2O[C@H]2C[C@](C)(N)[C@H](O)[C@H](C)O2)Oc2ccc(cc2Cl)[C@H]1O",
    "STUDY SYSTEM": "SaR4: Meticillin-Resistant Staphylococcus aureus",
    "OBSERVED RESULT": "Susceptible"
  },
  {
    "COMPOUND": "C[C@@H]1O[C@@H]1P(=O)(O)O",
    "STUDY SYSTEM": "SaR4: Meticillin-Resistant Staphylococcus aureus",
    "OBSERVED RESULT": "Resistant"
  },
  {
    "COMPOUND": "CC(=O)O[C@H]1C[C@@]2(C)[C@@H](C[C@@H](O)[C@H]3[C@@]4(C)CC[C@@H](O)[C@@H](C)[C@@H]4CC[C@@]32C)/C1=C(\\CCC=C(C)C)C(=O)O",
    "STUDY SYSTEM": "SaR4: Meticillin-Resistant Staphylococcus aureus",
    "OBSERVED RESULT": "Susceptible"
  },
  {
    "COMPOUND": "CC1(C)S[C@@H]2[C@H](NC(=O)Cc3ccccc3)C(=O)N2[C@H]1C(=O)O",
    "STUDY SYSTEM": "SaR4: Meticillin-Resistant Staphylococcus aureus",
    "OBSERVED RESULT": "Resistant"
  },
  {
    "COMPOUND": "CC[C@H]1OC(=O)[C@H](C)[C@@H](O[C@H]2C[C@@](C)(OC)[C@@H](O)[C@H](C)O2)[C@H](C)[C@@H](O[C@@H]2O[C@H](C)C[C@H](N(C)C)[C@H]2O)[C@](C)(O)C[C@@H](C)C(=O)[C@H](C)[C@@H](O)[C@]1(C)O",
    "STUDY SYSTEM": "SaR4: Meticillin-Resistant Staphylococcus aureus",
    "OBSERVED RESULT": "Resistant"
  }
]
